# Assay target: T1, A. baumannii LptAm2.0 (LptAm(Ab)2.0) (A. baumannii ATCC 17978, UniProt V5VEZ9 33-159)
# T1 construct: LptA of A. baumannii ATCC 17978, L33 to G159: as LptAm(Ab)1.0 with a further 5-residue truncation at the C-terminus; source: E. coli BL21(DE3), purified (two-step NiNTA with TEV cleavage); not shown: GB1 (protein G B1 domain), N-terminal, cleaved; His tag, N-terminal, cleaved
# T1 sequence: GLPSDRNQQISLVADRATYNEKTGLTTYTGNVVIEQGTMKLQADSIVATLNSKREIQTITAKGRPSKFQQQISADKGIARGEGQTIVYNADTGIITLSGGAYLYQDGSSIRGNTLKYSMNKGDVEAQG
# Test summary: fluorescence polarisation; competition: unlabeled peptide serially diluted, 1:1 mixture of LptAm(Ab)2.0 and than-FL added (than-FL 10 µM final); 50 mM NaPi pH 7, 150 mM NaCl, 0.05% Tween20; KI from IC50 by the Cheng-Prusoff equation
# Test settings: both partners purified
Recorded endpoint: pIC50
pIC50 is a log-scale quantity: -log10 of the concentration expressed in molar.

QUERY: Using the record for GSKKPVPIIYCNRRTGKCQRM (thanatin, the naturally occurring 21-mer; positions 1′-21′; also called native thanatin) [Thanatin] , state its measured pIC50.
RESULT: 4.93

The origin of these recorded values is paper PMC10254193.
